System: 349418-098-R-PDC complex spheroid viability
Test: Anticancer human tumor 349418-098-R-PDC patient-derived lung adenocarcinoma cell line growth inhibition [RAS]
Conditions: second compound 0.3 µM; first compound 0.03 µM; hits give low values
Readout: viability, T/C (%)
Just the number in %, nothing appended.

// returns viability, T/C for CCc1c2c(nc3ccc(O)cc13)-c1cc3c(c(=O)n1C2)COC(=O)[C@]3(O)CC + CCn1c(-c2cccnc2C(C)OC)c2c3cc(ccc31)N1CCOC(CC(NC(=O)C(C(C)C)N(C)C(=O)C3(F)CCN(C(=O)C#CC(C)(C)N(C)C)CC3)C(=O)N3CCCC(N3)C(=O)OCC(C)(C)C2)C1 with 349418-098-R-PDC complex spheroid viability; value = 4.31

# CC1(C)CCC(Nc2ncc(C(F)(F)F)c(-c3c[nH]c4c(P(C)(C)=O)c(C#N)ccc34)n2)CN1 (centres undefined) + CCn1c(-c2cc(N3CCN(C)CC3)cnc2C(C)OC)c2c3cc(ccc31)-c1csc(n1)CC(NC(=O)C1CC1C)C(=O)N1CCCC(N1)C(=O)OCC(C)(C)C2 with 349418-098-R-PDC complex spheroid viability: viability, T/C is 11

With 349418-098-R-PDC complex spheroid viability as the test system, CC1(C)CCC(Nc2ncc(C(F)(F)F)c(-c3c[nH]c4c(P(C)(C)=O)c(C#N)ccc34)n2)CN1 (centres undefined) + CCn1c(-c2cccnc2C(C)OC)c2c3cc(ccc31)N1CCOC(CC(NC(=O)C(C(C)C)N(C)C(=O)C3(F)CCN(C(=O)C#CC(C)(C)N(C)C)CC3)C(=O)N3CCCC(N3)C(=O)OCC(C)(C)C2)C1 showed viability, T/C of 9.41

Response field viability, T/C (349418-098-R-PDC complex spheroid viability) for item CCc1c2c(nc3ccc(O)cc13)-c1cc3c(c(=O)n1C2)COC(=O)[C@]3(O)CC + CCn1c(-c2cc(N3CCN(C)CC3)cnc2C(C)OC)c2c3cc(ccc31)-c1csc(n1)CC(NC(=O)C1CC1C)C(=O)N1CCCC(N1)C(=O)OCC(C)(C)C2 : 7.26

----------
System: 349418-098-R-PDC complex spheroid viability
Test: Anticancer human tumor 349418-098-R-PDC cell line growth inhibition [RAS]; active means viability on the fitted dose curve at most 10% of control; inactive means the rest;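 note: spheroids exposed to compound for seven days before viability readout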
Details: second compound 3.16 µM; first compound 3.16 µM
Write down one outcome, taken from true = active, false = inactive

Short answer needed: outcome of this test for Cc1nc(N2CCC3(CC2)COC(C)C3N)c(CO)nc1Sc1ccnc(N)c1Cl (stereo not given) + C#Cc1c(F)ccc2cc(O)cc(-c3ncc4c(N5CC6CCC(C5)N6)nc(OCC56CCCN5CC(F)C6)nc4c3F)c12 ? false

Hi, do you know how C[C@@H](NC(=O)c1ncnc(N)c1Cl)c1ncc(C(=O)Nc2cc(C(F)(F)F)c(Cl)cn2)s1 + C#Cc1c(F)ccc2cc(O)cc(-c3ncc4c(N5CC6CCC(C5)N6)nc(OCC56CCCN5CC(F)C6)nc4c3F)c12 came out in this test? false

Write down the call the test reported for this compound. Item: CC1(O)CCCC1n1c(=O)c(C(F)F)cc2cnc(NC3CCN(S(C)(=O)=O)CC3)nc21 (stereo not given) + C#Cc1c(F)ccc2cc(O)cc(-c3ncc4c(N5CC6CCC(C5)N6)nc(OCC56CCCN5CC(F)C6)nc4c3F)c12 false

Query: recorded result category for CCC(CC)c1cc(NC2CCC(N)C2)n2nccc2n1 (stereo not given) + C#Cc1c(F)ccc2cc(O)cc(-c3ncc4c(N5CC6CCC(C5)N6)nc(OCC56CCCN5CC(F)C6)nc4c3F)c12 in this test true

Please state the recorded outcome for this compound: CC(=O)OC12COC1CC(O)C1(C)C(=O)C(O)C3=C(C)C(OC(=O)C(O)C(NC(=O)OC(C)(C)C)c4ccccc4)CC(O)(C(OC(=O)c4ccccc4)C21)C3(C)C (stereo not given) + C#Cc1c(F)ccc2cc(O)cc(-c3ncc4c(N5CC6CCC(C5)N6)nc(OCC56CCCN5CC(F)C6)nc4c3F)c12 false
